meta.source: patent US8598159B2

- tested_on: GABAA central benzodiazepine receptor
- test_description: Benzodiazepine binding assay ((3H)-flunitrazepam displacement)
- conditions_used: read-out: BZ binding assay (IC50); rat whole brain (except cerebellum), 1 nM (3H)-flunitrazepam, 60 minutes at 25° C.; 3-concentration dose response curve
result_type: IC50

Sample records with IC50:
O=c1c2c[nH]c3cc(N4CCOCC4)ccc3c-2nn1-c1ccccc1 [28h]	< 1000 nM
CN1CCN(c2ccc3[nH]cc4c(=O)n(-c5ccccc5)nc-4c3c2)CC1 [7b]	< 1000 nM
CC(C)N1CCN(c2ccc3[nH]cc4c(=O)n(-c5ccccc5)nc-4c3c2)CC1 [19b]	< 1000 nM
O=c1c2c[nH]c3cc(N4CCOCC4)c(F)cc3c-2nn1-c1ccccc1 [28b]	< 1000 nM
CN(C)C1CCN(c2cc3[nH]cc4c(=O)n(-c5ccccc5)nc-4c3cc2F)CC1 [28i]	< 1000 nM
O=c1c2c[nH]c3cc(N4CCNCC4)ccc3c-2nn1-c1ccc(Cl)cc1 [14c]	< 1000 nM
Cc1[nH]c2cc(N3CCOCC3)c(F)cc2c2nn(-c3ccccc3)c(=O)c1-2 [63b]	> 1000 nM
CC1CN(c2cc3[nH]cc4c(=O)n(-c5ccccc5)nc-4c3cc2F)CC(C)O1 (stereo not shown) [28g]	< 1000 nM

input: Param item = O=c1c2c[nH]c3cc(N4CCNCC4)c(F)cc3c-2nn1-c1ccccc1F [28n] ; retrieve measured IC50.
output: > 1000 nM

input: Param item = CN1CCN(c2ccc3c4nn(-c5ccccc5)c(=O)c-4c[nH]c3c2)CC1 [14b] ; retrieve measured IC50.
output: < 1000 nM

input: Param item = CC(C)N1CCN(c2ccc3c4nn(-c5ccccc5)c(=O)c-4c[nH]c3c2F)CC1 [48e] ; retrieve measured IC50.
output: < 1000 nM

input: Param item = O=c1c2c[nH]c3cc(Cl)c(N4CCOCC4)cc3c-2nn1-c1ccccc1 [19k] ; retrieve measured IC50.
output: < 1000 nM

input: Param item = O=c1c2c[nH]c3c(F)c(N4CCNCC4)ccc3c-2nn1-c1ccccc1 [48a] ; retrieve measured IC50.
output: > 1000 nM

input: Param item = O=c1c2c[nH]c3cc(N4CCN(C5CCCC5)CC4)c(F)cc3c-2nn1-c1ccccc1 [28j] ; retrieve measured IC50.
output: < 1000 nM

input: Param item = O=c1c2c[nH]c3cc(N4CCNCC4)c(F)cc3c-2nn1-c1ccsc1 [28p] ; retrieve measured IC50.
output: < 1000 nM

input: Param item = O=c1c2c[nH]c3c(F)c(N4CCOCC4)ccc3c-2nn1-c1ccccc1 [48c] ; retrieve measured IC50.
output: < 1000 nM

----------
- System: GABAA receptors
- test_description: Electrophysiology assay (two-electrode voltage clamp, Xenopus oocytes expressing GABAA receptors)
- Type: cell-based
- conditions_used: positive (Pos) or negative (Neg) modulation of current at GABA EC20, screening concentration of 10 μM
result_type: EP Result

Sample records with EP Result:
CN1CCN(c2ccc3[nH]cc4c(=O)n(-c5ccc(Cl)cc5)nc-4c3c2)CC1	Pos
O=c1c2c[nH]c3c(N4CCOCC4)cc(N4CCOCC4)cc3c-2nn1-c1ccccc1 [58a]	Neg
COCCN1CCN(c2ccc3[nH]cc4c(=O)n(-c5ccccc5)nc-4c3c2)CC1 [19f]	Pos
CN1CCN(c2c(F)cc3c4nn(-c5ccccc5)c(=O)c-4c[nH]c3c2F)CC1 [44b]	Pos
CC(C)N1CCN(c2cc3[nH]cc4c(=O)n(-c5ccccc5)nc-4c3cc2F)CC1 [28c]	Pos

input: Param item = CC(C)N1CCN(c2cc(N3CCN(C(C)C)CC3)c3[nH]cc4c(=O)n(-c5ccccc5)nc-4c3c2)CC1 [58b] ; retrieve measured EP Result.
output: Neg

input: Param item = CN1CCN(c2cc3[nH]cc4c(=O)n(-c5ccccn5)nc-4c3cc2F)CC1 [28f] ; retrieve measured EP Result.
output: Pos

input: Param item = CN1CCN(c2ccc3c4nn(-c5ccccc5)c(=O)c-4c[nH]c3c2)CC1 [14b] ; retrieve measured EP Result.
output: Neg

input: Param item = O=c1c2c[nH]c3c(F)c(N4CCOCC4)c(F)cc3c-2nn1-c1ccccc1 [44c] ; retrieve measured EP Result.
output: Pos

----------
Quick list: IC50 per entry.
- tested_on: GABAA central benzodiazepine receptor
- test_description: Benzodiazepine binding assay ((3H)-flunitrazepam displacement)
- conditions_used: read-out: BZ binding assay (IC50); rat whole brain (except cerebellum), 1 nM (3H)-flunitrazepam, 60 minutes at 25° C.; 3-concentration dose response curve

CN1CCN(c2ccc3c4nn(-c5ccc(Cl)cc5)c(=O)c-4c[nH]c3c2)CC1 [14d]	< 1000 nM

input: Param item = O=c1c2c[nH]c3cc(N4CCCNCC4)c(F)cc3c-2nn1-c1ccccc1 [28l] ; retrieve measured IC50.
output: < 1000 nM

input: Param item = Cc1[nH]c2cc(N3CCNCC3)c(F)cc2c2nn(-c3ccccc3)c(=O)c1-2 [63a] ; retrieve measured IC50.
output: > 1000 nM

input: Param item = COc1ccc(-n2nc3c4cc(N5CCN(C(C)C)CC5)ccc4[nH]cc-3c2=O)cc1 [19i] ; retrieve measured IC50.
output: < 1000 nM

input: Param item = CN1CCN(c2ccc3[nH]cc4c(=O)n(-c5ccc(Cl)cc5)nc-4c3c2)CC1 [7d] ; retrieve measured IC50.
output: < 1000 nM

input: Param item = CN1CCN(c2cc3[nH]cc4c(=O)n(-c5ccccn5)nc-4c3cc2F)CC1 [28f] ; retrieve measured IC50.
output: < 1000 nM

input: Param item = O=c1c2c[nH]c3c(N4CCNCC4)cc(C(F)(F)F)cc3c-2nn1-c1ccccc1 [52a] ; retrieve measured IC50.
output: < 1000 nM

input: Param item = COc1ccc(-n2nc3c4ccc(N5CCNCC5)cc4[nH]cc-3c2=O)cc1 [14e] ; retrieve measured IC50.
output: < 1000 nM

----------
- Test system: GABAA receptors
- test_description: Electrophysiology assay (two-electrode voltage clamp, Xenopus oocytes expressing GABAA receptors)
- Type: cell-based
- conditions_used: positive (Pos) or negative (Neg) modulation of current at GABA EC20, screening concentration of 10 μM
result_type: EP Result

Sample records with EP Result:
O=c1c2c[nH]c3ccc(N4CCOCC4)cc3c-2nn1-c1ccccc1F [19e]	Neg
CC1CC(C)CN(c2cc3[nH]cc4c(=O)n(-c5ccccc5)nc-4c3cc2F)C1 (centres unmarked) [28e]	Pos
O=c1c2c[nH]c3ccc(N4CCCCC4)cc3c-2nn1-c1ccccc1 [19g]	Pos
COc1ccc(-n2nc3c4cc(N5CCNCC5)ccc4[nH]cc-3c2=O)cc1 [7e]	Pos
O=c1c2c[nH]c3cc(N4CCNCC4)ccc3c-2nn1-c1ccc(Cl)cc1 [14c]	Neg

input: Param item = O=c1c2c[nH]c3cc(N4CCNCC4)c(F)cc3c-2nn1-c1ccsc1 [28p] ; retrieve measured EP Result.
output: Neg

input: Param item = O=c1c2c[nH]c3ccc(N4CCOCC4)cc3c-2nn1-c1ccccc1 [19d] ; retrieve measured EP Result.
output: Neg

input: Param item = O=c1c2c[nH]c3cc(N4CCOCC4)ccc3c-2nn1-c1ccccc1 [28h] ; retrieve measured EP Result.
output: Pos

input: Param item = O=c1c2c[nH]c3cc(N4CCOCC4)c(F)cc3c-2nn1-c1ccccc1 [28b] ; retrieve measured EP Result.
output: Pos

input: Param item = O=c1c2c[nH]c3c(F)c(N4CCNCC4)c(F)cc3c-2nn1-c1ccccc1 [44a] ; retrieve measured EP Result.
output: Neg

----------
Quick list: IC50 per entry.
- tested_on: GABAA central benzodiazepine receptor
- test_description: Benzodiazepine binding assay ((3H)-flunitrazepam displacement)
- conditions_used: read-out: BZ binding assay (IC50); rat whole brain (except cerebellum), 1 nM (3H)-flunitrazepam, 60 minutes at 25° C.; 3-concentration dose response curve

Sample records with IC50:
CC1CN(c2ccc3[nH]cc4c(=O)n(-c5ccccc5)nc-4c3c2)CC(C)O1 (stereo not drawn) [19h]	< 1000 nM
CN1CCCN(c2cc3[nH]cc4c(=O)n(-c5ccccc5)nc-4c3cc2F)CC1 [28m]	< 1000 nM

input: Param item = O=c1c2c[nH]c3cc(N4CCOCC4)c(F)cc3c-2nn1-c1ccsc1 [28r] ; retrieve measured IC50.
output: < 1000 nM

----------
- tested_on: GABAA central benzodiazepine receptor
- test_description: Benzodiazepine binding assay ((3H)-flunitrazepam displacement)
- conditions_used: read-out: BZ binding assay (IC50); rat whole brain (except cerebellum), 1 nM (3H)-flunitrazepam, 60 minutes at 25° C.; 3-concentration dose response curve
pIC50: −log10 of the molar value.
result_type: pIC50

input: Param item = O=c1c2c[nH]c3c(N4CCCNCC4)cc(C(F)(F)F)cc3c-2nn1-c1ccccc1 [52c] ; retrieve measured pIC50.
output: > 6.00

input: Param item = COc1ccc(-n2nc3c4ccc(N5CCN(C)CC5)cc4[nH]cc-3c2=O)cc1 [14f] ; retrieve measured pIC50.
output: < 6.00

input: Param item = COc1ccc(-n2nc3c4cc(N5CCNCC5)ccc4[nH]cc-3c2=O)cc1 ; retrieve measured pIC50.
output: > 6.00
